Target: GTPase KRas (Homo sapiens)
Sequence (P01116 whole entry): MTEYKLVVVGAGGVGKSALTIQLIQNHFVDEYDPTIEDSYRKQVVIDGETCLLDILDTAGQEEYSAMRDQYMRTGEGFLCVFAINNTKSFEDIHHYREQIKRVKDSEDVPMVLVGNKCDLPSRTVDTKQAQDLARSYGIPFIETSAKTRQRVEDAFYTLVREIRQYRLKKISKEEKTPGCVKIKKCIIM
Measured Metric: pIC50
As a rule, pIC50 stands for the negative log10 of the concentration, concentration in M.

Prompt line: Request: pIC50, test system GTPase KRas (Homo sapiens), entry `Cc1cc(N)nc(-c2c(Cl)c3c4c(nc(OCC56CC(CO5)C6)nc4c2F)N([C@H](C)c2cccnc2N)CCO3)c1C(F)(F)F`
Response line: 9.06
